These data points were gathered from patent US6586437B2.

Examples of compounds with documented IC50 follow.
Biological target: α1 Receptor
Experiment: α1 receptor binding
Settings: read-out: α1 Receptor Binding IC50, Alpha1
Structures can show the parent of a compound that is named as a salt.
Respond numerically; units are nM and should not be typed.

INSERT INTO assay_data (compound, systemname, measurementtype, unitofmeasurement, recordednumber) VALUES
  ('CC(O)c1nn(CCCN2CCN(c3cccc(Cl)c3)CC2)c(=O)n1CCOc1ccccc1 (racemic) [(RS)—OH]', 'α1 Receptor', 'IC50', 'nM', 381),
  ('C[C@H](O)c1nn(CCCN2CCN(c3cccc(Cl)c3)CC2)c(=O)n1CCOc1ccccc1 [(S)—OH]', 'α1 Receptor', 'IC50', 'nM', 419),
  ('C[C@@H](O)c1nn(CCCN2CCN(c3cccc(Cl)c3)CC2)c(=O)n1CCOc1ccccc1 [(R)—OH, (R)-Hydroxynefazodone hydrochloride]', 'α1 Receptor', 'IC50', 'nM', 367);

Query compound follows.
Return the recorded IC50 value; entry: CCc1nn(CCCN2CCN(c3cccc(Cl)c3)CC2)c(=O)n1CCOc1ccccc1 [Nefazodone] 306
